Recorded cytotoxic activity (ADCC) against Ramos values for a group of binders are listed next.
- system.tested: T1, human CAPRIN-1 protein on the cell surfaces of human cancer cell lines and in human cancer tissues (human, UniProt Q14444 2-709)
- T1 sequence (looked up): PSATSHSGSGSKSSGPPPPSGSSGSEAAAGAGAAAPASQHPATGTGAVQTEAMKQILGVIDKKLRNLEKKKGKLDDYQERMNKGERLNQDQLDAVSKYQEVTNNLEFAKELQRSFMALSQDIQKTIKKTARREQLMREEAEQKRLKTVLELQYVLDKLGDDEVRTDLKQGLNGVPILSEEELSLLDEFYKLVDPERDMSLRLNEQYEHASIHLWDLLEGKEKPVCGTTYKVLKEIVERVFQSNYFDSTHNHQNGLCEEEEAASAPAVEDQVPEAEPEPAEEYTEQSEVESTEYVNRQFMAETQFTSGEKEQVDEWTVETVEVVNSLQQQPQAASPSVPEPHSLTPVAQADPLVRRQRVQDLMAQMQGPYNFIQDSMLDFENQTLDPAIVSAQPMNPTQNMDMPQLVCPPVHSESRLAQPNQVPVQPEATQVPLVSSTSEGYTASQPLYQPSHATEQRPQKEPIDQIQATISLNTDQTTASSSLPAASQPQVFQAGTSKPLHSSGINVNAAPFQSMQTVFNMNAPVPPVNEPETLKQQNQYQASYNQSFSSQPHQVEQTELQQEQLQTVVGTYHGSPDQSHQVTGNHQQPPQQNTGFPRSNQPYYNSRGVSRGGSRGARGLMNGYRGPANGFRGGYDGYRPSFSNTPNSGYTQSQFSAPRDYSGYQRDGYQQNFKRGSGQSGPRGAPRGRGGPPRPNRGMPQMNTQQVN
- test.summary: cell-based or functional assay

anti-CAPRIN-1 mouse monoclonal antibody #6 (antibody, V domains shown, Mouse hybridoma antibody; detected with anti-mouse IgG) VH: DAELVKPGASVKISCKASGYTFTDHSIHWVQQKPEQGLEWIGYISPGNGNIKYNEKFKGKATLTADKSSSTAYMQLNSLTSEDSAVYFCKRSLGRGGPYYFDYWGQGTTVTVSS VL: DIVLTQAAPSLPVTPGESVSISCRSSKSLLHSNGNTYLYWFLQRPGQSPQLLIYRMSNLASGVPDRFSGSGSGTAFTLRISRVEAEDVGVYYCMQHREYPVTFGSGPN
≥ 10%

Query: Tell me measured cytotoxic activity (ADCC) against Ramos for anti-CAPRIN-1 mouse monoclonal antibody #5 (antibody, V domains shown, Mouse hybridoma antibody; detected with anti-mouse IgG) VH: GAELVRSGASVKMSCKASGYSFTDYNMYWVKQTPGQGLEWIGYIYPGNGGTNYNQKFKGKATLTADTSSSTAYMQISSLTSEDSAVYFCARDYDDGGYAMDYWGQGTTVTVSS VL: DIQMTQSPASLSASVGETVTITCRASGNIHNYLTWYQQKQGKSPQLLVYNAKTLADGVPSRFSGSGSGTQYSLKINRLQPEDFGSYYCQHFWNIPWTFGGGTKLNSR please.
Response: ≥ 10%

Query: Supply recorded cytotoxic activity (ADCC) against Ramos for anti-CAPRIN-1 mouse monoclonal antibody #4 (antibody, V domains shown) VH: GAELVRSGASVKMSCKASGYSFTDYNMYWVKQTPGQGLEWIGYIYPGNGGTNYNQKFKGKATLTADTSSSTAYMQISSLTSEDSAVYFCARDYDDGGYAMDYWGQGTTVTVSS VL: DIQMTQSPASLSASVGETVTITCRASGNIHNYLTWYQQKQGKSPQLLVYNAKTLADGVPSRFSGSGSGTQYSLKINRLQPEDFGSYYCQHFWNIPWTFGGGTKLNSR here.
Response: ≥ 10%
